Experiment: Single-dose pharmacokinetics in rats (plasma, UHPLC/MS/MS)
Format: in vivo, Sprague Dawley rats
Conditions: male, Sprague Dawley, rat, plasma, po, 42 mg/kg
From the text: Sixty healthy adult Sprague Dawley rats (180-220 g, half male and female) were purchased from the Guangdong Medical Laboratory Animal Center (Guangzhou, Guangdong, China). Thirty Beagle dogs (10-14 kg, half male and female) were purchased from the […] […] The compounds were detected by multiple reaction monitoring in the negative ion electrospray mode. […] All pharmacokinetic and excretion parameters were expressed as mean ± standard deviation (SD). […]
Test Readout: half-life (min)
Give bare numbers, in min.

**Query** Could you tell me which half-life is on file for C[C@@H]1O[C@@H](O[C@H]2[C@H](Oc3cc(O)c4c(c3)O[C@H](c3ccc(O)cc3)CC4=O)O[C@H](CO)[C@@H](O)[C@@H]2O)[C@H](O)[C@H](O)[C@H]1O ?
**Result** 22.5
